- System: MDA-MB-231 breast
- protocol.notes: NCI-60 one-dose screen, 48 h (100 = growth as untreated, 0 = no growth, -100 = all killed)
- condition.description: 10 µM
The panel holds about 83,000 compounds, 20% with a hit somewhere; the sample as a whole holds those more often.
metric: growth (%)
State the answer as a number, implicitly in %.

Solved cases (5 shown):
COc1ccc2c(c1)[n+]([O-])c(C#N)c(NC(=O)c1ccco1)[n+]2[O-]
92.3
CCC(=O)N1C/C(=C/c2ccc(Cl)cc2)C(=O)/C(=C/c2ccc(Cl)cc2)C1
-22
CCC1(C(C)C)NC(=O)NC1=O (stereo not given)
100
CCC(=O)N1C/C(=C/c2ccc(Br)cc2)C(=O)/C(=C/c2ccc(Br)cc2)C1
-46.7
COc1ccc(C2=NN(C(=O)c3ccc(S(C)(=O)=O)cc3)C(c3ccc(OC)c(OC)c3)C2)c(OC)c1 (stereo not given)
95.2

Query growth for O=C(Nc1cccc(-n2cc(-c3ccncc3)c(-c3ccc(O)c(Cl)c3)n2)c1)c1ccc(Cl)c(Cl)c1 -19.9

Query growth for O=C(Nc1ccc(Cl)c([N+](=O)[O-])c1)Nc1nc2ccccc2s1 86.2

Query growth for CN1CC[C@@H](c2c(O)cc(O)c3c(=O)cc(-c4ccccc4Cl)oc23)[C@@H](O)C1 13.4

Query growth for c1ccc(C(NC2CC3CCC2C3)c2ccccc2)cc1 (stereo not given) 96.1

Query growth for Nc1ccc2c(c1)Cc1cc(N)c(Br)cc1-2 116

====

- System: HT29 colon
- protocol.notes: NCI-60 one-dose screen, 48 h (100 = growth as untreated, 0 = no growth, -100 = all killed)
- condition.description: 10 µM
Compounds without any hit were thinned out: in the full panel of roughly 83,000, 20% have a hit.
metric: growth (%)
State the answer as a number, implicitly in %.

CSc1nn(-c2ccccc2)c2ncnc(Oc3ccc(C)cc3)c12
99.3
CN(C)c1ccc(-c2cc(-c3cccc(NS(C)(=O)=O)c3)nc(N)c2C#N)cc1
8.8
CCCCOc1ccc(NC(=O)Nc2nnc(C)s2)cc1
99.4

Give HT29 colon growth for the following compound: COC(=O)[C@@H]1[C@H](O)[C@H](C)[C@H](O)[C@@](C)(O)/C=C\C=C(C)C(=O)Nc2c(C)c(OC(C)=O)c3c(c2O)C(=O)C(C)=C2OCOC(=C23)C(C)=C[C@@](C)(O)[C@H](O)[C@@H](C)[C@H]1OC(C)=O 111

Give HT29 colon growth for the following compound: COc1ccc(/C=C2/CN(C(=O)c3ccccc3F)C/C(=C\c3ccc(OC)cc3)C2=O)cc1 -82.5

====

- Tested on: NCI-H522 lung
- protocol.notes: NCI-60 one-dose screen, 48 h (100 = growth as untreated, 0 = no growth, -100 = all killed)
- condition.description: 10 µM
The panel holds about 83,000 compounds, 20% with a hit somewhere; the sample as a whole holds those more often.
metric: growth (%)
State the answer as a number, implicitly in %.

Solved cases (5 shown):
Cc1cc2c(C)c3cc(C)c(N)cc3nc2cc1N
-49.4
Clc1ccc(Nc2ccnc(NCCCNc3ccnc4cc(Cl)ccc34)n2)cc1
-76
COc1cc(-c2cc(/C=C/C(=O)c3ccc(N)cc3)[nH]n2)cc(OC)c1OC
10.8
CC(=O)C1CCC2C3CC(F)C4=CC(=O)CCC4(C)C3C(O)CC12C (stereo unspecified)
85.8
COc1ccc(-c2nc3sccn3c2-c2nc3c([nH]2)C(=O)c2ccccc2C3=O)cc1
96.8

Query growth for COC(=O)C1(C)Cc2cc(OC(C)=O)c(OC(C)=O)cc2N1 (stereo unspecified) -55.8

Query growth for CN(C)N=Nc1nn(C(=O)Nc2ccc(Cc3ccccc3)cc2)c2ccccc12 42.3

Query growth for O=C(O)c1ccc(Cl)cc1Nc1ccc(F)cc1 82.6

Query growth for COc1cc2nc(Nc3cccc(C(=O)O)c3)nc(N)c2cc1OC 87.4
